target.under.test: Glucocorticoid receptor (Homo sapiens, UniProt P04150)
Sequence (P04150 whole entry): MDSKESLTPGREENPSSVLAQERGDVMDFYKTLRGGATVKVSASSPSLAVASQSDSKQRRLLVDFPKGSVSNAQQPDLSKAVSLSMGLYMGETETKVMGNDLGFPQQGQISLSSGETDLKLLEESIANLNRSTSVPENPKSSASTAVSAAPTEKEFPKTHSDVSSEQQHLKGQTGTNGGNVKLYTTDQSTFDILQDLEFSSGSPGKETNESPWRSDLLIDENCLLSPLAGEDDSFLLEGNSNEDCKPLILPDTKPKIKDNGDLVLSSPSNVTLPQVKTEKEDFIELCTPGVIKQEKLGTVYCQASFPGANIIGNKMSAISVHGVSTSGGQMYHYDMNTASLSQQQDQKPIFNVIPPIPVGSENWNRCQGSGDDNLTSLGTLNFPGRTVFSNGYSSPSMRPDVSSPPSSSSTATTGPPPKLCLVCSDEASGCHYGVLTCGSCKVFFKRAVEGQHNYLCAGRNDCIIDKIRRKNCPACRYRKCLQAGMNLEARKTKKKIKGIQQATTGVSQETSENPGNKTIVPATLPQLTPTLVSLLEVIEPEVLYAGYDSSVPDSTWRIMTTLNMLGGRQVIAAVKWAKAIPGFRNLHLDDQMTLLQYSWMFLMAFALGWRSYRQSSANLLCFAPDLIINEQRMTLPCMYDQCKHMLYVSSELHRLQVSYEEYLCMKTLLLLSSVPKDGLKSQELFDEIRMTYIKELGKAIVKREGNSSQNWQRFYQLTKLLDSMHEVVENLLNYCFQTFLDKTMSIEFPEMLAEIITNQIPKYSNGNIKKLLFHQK
experimental.protocol: Ability to induce human IL-6 assay in A549 lung carcinoma cell line.
Format: functional, cell-based
EC50 values for the compounds below.
Returns: string containing the numeric result and its unit.

[
  {
    "structure.smiles.string": "Cc1ccc(C[C@H](O)[C@H]2CCCC3=Cc4c(cnn4-c4ccc(F)cc4)C[C@@]32C)cc1",
    "target.under.test": "Glucocorticoid receptor (Homo sapiens, UniProt P04150)",
    "data.value": "11.4 nM"
  }
]

[ask] Lab note: need EC50 for `Cc1cc([C@H](O)[C@H]2CCCC3=Cc4c(cnn4-c4ccc(F)cc4)C[C@@]32C)ccc1F` on Glucocorticoid receptor (Homo sapiens, UniProt P04150), anyone have it?
[reply] 10.2 nM

[ask] Give recorded EC50 with Glucocorticoid receptor (Homo sapiens, UniProt P04150) for the following compound: `C[C@]12Cc3cnn(-c4ccc(F)cc4)c3C=C1CCC[C@@H]2[C@@H](O)CCC1CC1`
[reply] 8.6 nM

[ask] Short answer please: EC50, Glucocorticoid receptor (Homo sapiens, UniProt P04150), entry `COc1cc([C@H](O)[C@H]2CCCC3=Cc4c(cnn4-c4ccc(F)cc4)C[C@@]32C)cc(F)c1F`
[reply] 14.4 nM

----------
Quick reference for IC50 among some compounds
target.under.test: Glucocorticoid receptor (Homo sapiens)
Sequence (P04150 whole entry): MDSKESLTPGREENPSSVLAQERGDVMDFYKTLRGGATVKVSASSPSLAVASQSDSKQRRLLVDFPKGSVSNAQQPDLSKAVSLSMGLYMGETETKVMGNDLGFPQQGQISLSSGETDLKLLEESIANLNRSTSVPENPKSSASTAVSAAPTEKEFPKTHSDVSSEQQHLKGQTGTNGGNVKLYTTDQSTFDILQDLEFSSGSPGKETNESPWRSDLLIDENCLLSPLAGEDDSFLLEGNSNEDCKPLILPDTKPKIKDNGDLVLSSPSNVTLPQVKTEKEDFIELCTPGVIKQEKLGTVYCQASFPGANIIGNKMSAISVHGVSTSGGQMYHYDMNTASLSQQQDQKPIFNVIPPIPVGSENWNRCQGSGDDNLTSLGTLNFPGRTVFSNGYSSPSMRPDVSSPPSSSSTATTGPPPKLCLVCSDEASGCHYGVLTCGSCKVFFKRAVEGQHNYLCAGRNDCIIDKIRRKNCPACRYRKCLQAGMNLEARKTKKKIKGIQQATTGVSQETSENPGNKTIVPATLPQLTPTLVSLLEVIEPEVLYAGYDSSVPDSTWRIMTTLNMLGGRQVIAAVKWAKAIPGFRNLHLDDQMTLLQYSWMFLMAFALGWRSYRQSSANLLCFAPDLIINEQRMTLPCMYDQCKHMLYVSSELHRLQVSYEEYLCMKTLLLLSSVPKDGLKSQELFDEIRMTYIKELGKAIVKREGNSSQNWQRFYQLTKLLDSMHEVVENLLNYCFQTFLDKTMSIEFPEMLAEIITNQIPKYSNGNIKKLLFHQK
experimental.protocol: Compound was tested for inhibitory activity towards human glucocorticoid receptor
Your answer should be a plain number; it is taken to be in nM.

Past entries and their recorded results:
[
  {
    "structure.smiles.string": "C[C@]12Cc3cnn(-c4ccc(F)cc4)c3C=C1CCC[C@@H]2[C@@H](O)c1ccc(O)cc1",
    "target.under.test": "Glucocorticoid receptor (Homo sapiens)",
    "unit.abbreviation": "nM",
    "IC50": 9.5
  },
  {
    "structure.smiles.string": "CC(C)(C)c1ccc(C[C@H](O)[C@H]2CCCC3=Cc4c(cnn4-c4ccc(F)cc4)C[C@@]32C)cc1",
    "target.under.test": "Glucocorticoid receptor (Homo sapiens)",
    "unit.abbreviation": "nM",
    "IC50": 16.6
  }
]

// next entry
[ask] Reported IC50, compound `C[C@]12Cc3cnn(-c4ccc(F)cc4)c3C=C1CCC[C@@H]2[C@@H](O)c1ccccc1` : ____
[reply] 8.4
